Origin of values: the supplement of paper PMC6555819

tested on: PPARg DBDmut IVT, anti-PPARg (DBD mutation: PPARg1 K132A/R137A, NR concentration 270 nM); assay: PBM binding z-score (relative to random genomic background probes); higher = stronger binding; sequences stand for … in GC…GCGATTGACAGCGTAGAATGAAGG
measured metric: PBM binding z-score

- chain: "ATCTCTAGGTAAAAGTTGAGTGAATCCCGAGGAT"
  measured metric: "PBM binding z-score"
  quantitative readout: 1.53
- chain: "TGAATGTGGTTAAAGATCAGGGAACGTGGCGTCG"
  measured metric: "PBM binding z-score"
  quantitative readout: 1.06
- chain: "CGAACGAAGGCATGAGTTGATAGCAAATGCCGAT"
  measured metric: "PBM binding z-score"
  quantitative readout: -0.962
- chain: "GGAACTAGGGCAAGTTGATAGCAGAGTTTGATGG"
  measured metric: "PBM binding z-score"
  quantitative readout: 0.266
- chain: "TCTTGTAGATCAAGCAGGTTAAGTAAGCCTGAGT"
  measured metric: "PBM binding z-score"
  quantitative readout: -0.27
- chain: "TCCAGTAGGTTACCAATGGGGCATTCAGCTTTCT"
  measured metric: "PBM binding z-score"
  quantitative readout: -0.253
- chain: "ACAGACAGGTGAGGGAAGGTAACTCAGCTGGACG"
  measured metric: "PBM binding z-score"
  quantitative readout: -0.614
- chain: "TCGAGTAGGGTAGTCGGGGCATTCAGCCAACATA"
  measured metric: "PBM binding z-score"
  quantitative readout: -0.743
- chain: "CCTACTGGGCCATTCTGAGGTCATTGATCATATG"
  measured metric: "PBM binding z-score"
  quantitative readout: -0.299
- chain: "TAGCCTATGTCATTCAGGGGCCAGTATAGAAAGC"
  measured metric: "PBM binding z-score"
  quantitative readout: 0.315
- chain: "ACAGACAGGTGATGAAGGTAACTCAAGCTATCAT"
  measured metric: "PBM binding z-score"
  quantitative readout: 0.468
- chain: "TCTTGTAGATCAACAGGAGTTTAAGAAAGATCGA"
  measured metric: "PBM binding z-score"
  quantitative readout: 0.197
- chain: "CGCCCAAGGTCAGAGAGGTCAGTGAATGCCGAGT"
  measured metric: "PBM binding z-score"
  quantitative readout: -0.732
- chain: "CCTAGCAGGCCAATCTGGGTCACTCACGGCTTGA"
  measured metric: "PBM binding z-score"
  quantitative readout: -0.428
- chain: "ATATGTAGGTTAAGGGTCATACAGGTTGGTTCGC"
  measured metric: "PBM binding z-score"
  quantitative readout: 2.15
- chain: "GCTATTAGTTTAAAGGGCAACCGAATGATTCTCG"
  measured metric: "PBM binding z-score"
  quantitative readout: 0.575
- chain: "TAGCCTAGGTCATTCAGGGGCCATTATAGAAAGC"
  measured metric: "PBM binding z-score"
  quantitative readout: 0.98
- chain: "AGAACGAGGGCACGCTGAGTTGATAGCGGAGTAG"
  measured metric: "PBM binding z-score"
  quantitative readout: 0.0426
- chain: "CCTAGTTGGTAAAGGTCACACACGCTATAGGTAC"
  measured metric: "PBM binding z-score"
  quantitative readout: 2.57
- chain: "ATCGAAAGGTCGTGAGGTGAGAATACAGAAAGGC"
  measured metric: "PBM binding z-score"
  quantitative readout: 0.86
- chain: "GCATATAGGTAATCCAAGGTGAAAGTCCGATTGT"
  measured metric: "PBM binding z-score"
  quantitative readout: 0.665
- chain: "TCTTGTAGATCAGCAGGTTAAGCAAGCTGGCCAA"
  measured metric: "PBM binding z-score"
  quantitative readout: 0.0188
- chain: "CGAACGAGGTCAAGGACAGTGAATCTCCGCACGC"
  measured metric: "PBM binding z-score"
  quantitative readout: -0.199
- chain: "TCTAGTTGGTCAAAGGGCACACACTCGAAATGCG"
  measured metric: "PBM binding z-score"
  quantitative readout: 0.679
- chain: "CAAACTACGTCAAGAGGTCAAAGTCCGCTTCCCG"
  measured metric: "PBM binding z-score"
  quantitative readout: 0.608
- chain: "CCGCGGAGGACAACAGGAGGTCAGAGCTGCCAGA"
  measured metric: "PBM binding z-score"
  quantitative readout: -1.52
